- Test system: Prostrate DU-145
- assayExplanation: In vitro cytotoxicity (sulforhodamine B) against human cancer cell lines, Prostrate DU-145
- Format: cell-based
- experimentalParameters: Conc 5 × 10^−5 M, 48 hours, read-out: % GROWTH INHIBITION Prostrate DU-145
Assign YES whenever inhibition at 50 µM does not fall below 50%; assign NO whenever it does.

A selection of reference data follows.
| compound | groupLabel |
| --- | --- |
| C[C@H]1[C@@H](C[C@@H](O)C2=CCCCC2=O)O[C@@H]2O[C@]3(C)CC[C@H]4[C@H](C)CC[C@@H]1[C@@]24OO3 | YES |
| C=C(C(C)=O)[C@H](O)C[C@H]1O[C@@H]2O[C@]3(C)CC[C@H]4[C@H](C)CC[C@@H]([C@H]1C)[C@@]24OO3 | YES |
| C=C(C#N)[C@@H](O)C[C@H]1O[C@@H]2O[C@]3(C)CC[C@H]4[C@H](C)CC[C@@H]([C@H]1C)[C@@]24OO3 (single isomer, unassigned) | YES |
| C[C@@H]1CC[C@H]2[C@@H](C)C(=O)O[C@@H]3O[C@@]4(C)CC[C@@H]1[C@]32OO4 | NO |

Given C=C(C#N)[C@H](O)C[C@H]1O[C@@H]2O[C@]3(C)CC[C@H]4[C@H](C)CC[C@@H]([C@H]1C)[C@@]24OO3 (single isomer, unassigned) , state whether its inhibition at 50 µM is at least 50%. NO
